Recorded values, source patent US20040162263A1.

- assay.summary: Pharmacokinetics of decitabine in IVAP rabbit model
- Format: in vivo, rabbits
- condition.summary: IV 1.5 mg/kg, 120 min
quantity: concentration PV, Mean (ng/mL)
Form entry: value (ng/mL) — number only.

Request: // returns reported concentration PV, Mean for input `Nc1ncn([C@H]2C[C@H](O)[C@@H](CO)O2)c(=O)n1`
Result: 59

###

- assay.summary: Pharmacokinetics of decitabine in IVAP rabbit model
- Assay type: in vivo, rabbits
- condition.summary: IV 1.5 mg/kg, 240 min; 1.5 mg/kg
quantity: concentration SYS, individual (ng/mL)
Supply the numeric figure in ng/mL, leaving out any unit text.

Request: Request the reported concentration SYS, individual associated with `Nc1ncn([C@H]2C[C@H](O)[C@@H](CO)O2)c(=O)n1`
Result: 10.2
